- tested.on: mMGL (Mus musculus, UniProt O35678)
- Construct: made in house; host or cells: E. coli (lysate)
- Sequence (O35678 whole entry): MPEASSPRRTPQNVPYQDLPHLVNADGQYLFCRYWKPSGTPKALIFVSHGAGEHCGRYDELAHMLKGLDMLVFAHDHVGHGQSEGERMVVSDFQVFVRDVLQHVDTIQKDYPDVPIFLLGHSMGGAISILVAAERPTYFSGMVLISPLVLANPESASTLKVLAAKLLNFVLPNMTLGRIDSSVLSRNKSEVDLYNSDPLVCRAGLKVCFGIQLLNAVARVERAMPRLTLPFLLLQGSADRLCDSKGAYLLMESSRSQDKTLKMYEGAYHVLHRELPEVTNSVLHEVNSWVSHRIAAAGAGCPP
- method.summary: mMGL off-target inhibition
- Format: biochemical
- assay.setup: read-out: mMGL off-target inhibition [% inhibition at 100 μM]
outcome.measure: inhibition at 100 µM (%)
Respond with the bare value in %.

Examples with their reported inhibition at 100 µM follow.
>>> print(df.to_string())
                               smiles_entry  units_label  measurement
0    CCOc1ccc(-c2cccc(C(=O)OCc3ccco3)n2)cc1            %            0
1         CCCCOC(=O)c1csc(-c2ccc(OCC)cc2)n1            %            0
2  C#C[C@@H](C)OC(=O)c1csc(-c2ccc(OCC)cc2)n1            %            0
3        CC#CCOC(=O)c1csc(-c2ccc(OCC)cc2)n1            %            0

// switching to the query compound
Given item CCOc1ccc(-c2nc(C(=O)OCc3ccc(Br)s3)cs2)cc1 , the value recorded as its inhibition at 100 µM is 70

====

The following compounds are listed with their measured IC50 values.
- tested.on: human ATGL (Homo sapiens, UniProt Q96AD5)
- Construct: made in house; host or cells: Expi cells (lysate, not purified)
- Sequence (Q96AD5 whole entry): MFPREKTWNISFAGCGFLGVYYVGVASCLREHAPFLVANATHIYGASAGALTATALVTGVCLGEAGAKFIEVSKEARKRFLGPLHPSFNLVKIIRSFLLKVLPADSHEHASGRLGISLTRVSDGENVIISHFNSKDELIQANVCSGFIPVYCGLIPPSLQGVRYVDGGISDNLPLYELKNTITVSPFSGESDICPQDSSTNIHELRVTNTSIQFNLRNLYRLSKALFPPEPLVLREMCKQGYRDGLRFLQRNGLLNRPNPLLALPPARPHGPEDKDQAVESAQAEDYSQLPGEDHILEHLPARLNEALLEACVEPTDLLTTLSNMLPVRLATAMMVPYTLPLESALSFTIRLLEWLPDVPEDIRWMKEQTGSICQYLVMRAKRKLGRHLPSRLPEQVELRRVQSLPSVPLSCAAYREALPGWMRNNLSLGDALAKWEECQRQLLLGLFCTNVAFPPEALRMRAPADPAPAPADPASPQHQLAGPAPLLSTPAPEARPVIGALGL
- method.summary: TG hydrolase activity, Expi cell lysates expressing human ATGL + CGI-58, radiolabelled triolein
- Type: biochemical
- assay.setup: Example 237; read-out: Inhibition of human ATGL − IC50
Respond with the bare value in µM.

Given item CCOC(=O)c1csc(-c2ccc(OC(C)CC)cc2)n1 (stereo not drawn) [Example 112] , the value recorded as its IC50 is 10

Given item C#CC(C)OC(=O)c1cc(OC)cc(-c2ccc(CCC)cc2)n1 (stereo not drawn) [Example 54] , the value recorded as its IC50 is 20

Given item CCCCCCc1ccc(-c2cccc(C(=O)OC(C)C)n2)cc1 [Example 68] , the value recorded as its IC50 is 1.5

Given item CCCCCCOC(=O)c1csc(-c2ccc(OCC)cc2)n1 [Example 156] , the value recorded as its IC50 is 15

Given item CCOc1ccc(-c2nc(C(=O)OC(C)(C)C)cs2)cc1 [Example 150] , the value recorded as its IC50 is 5

Given item CCCc1ccc(-c2cccc(C(=O)OCC)n2)cc1 [Example 66] , the value recorded as its IC50 is 10

Given item CCOc1ccc(-c2nc(C(=O)OC(C)(C)CC)cs2)cc1 [Example 118] , the value recorded as its IC50 is 25

Given item CCc1ccc(-c2cccc(C(=O)OC(C)C)n2)cc1 [Example 55] , the value recorded as its IC50 is 3

Given item CC(C)OC(=O)c1cccc(-c2ccc(Cl)cc2)n1 [Example 87] , the value recorded as its IC50 is 3

Given item CCOC(=O)c1nc(-c2ccc(OCC)cc2)sc1C [Example 124] , the value recorded as its IC50 is 17

Given item CCOc1ccc(-c2nc(C(=O)OC(C)(C)C)c(N3CCCCC3)s2)cc1 [Example 167] , the value recorded as its IC50 is 10

Given item CC(C)OC(=O)c1cccc(-c2ccc(CO)cc2)n1 [Example 12] , the value recorded as its IC50 is 25

Given item CCOc1ccc(-c2nc(C(=O)OCc3ccco3)cs2)cc1 [Example 153] , the value recorded as its IC50 is 5

Given item CCCCc1ccc(-c2cc(OC)cc(C(=O)OC(C)C)n2)cc1 [Example 57] , the value recorded as its IC50 is 2

Given item CCCCOC(=O)c1cccc(-c2ccc(OCC)cc2)n1 [Example 2] , the value recorded as its IC50 is 20

Given item CCCc1ccc(-c2cccc(C(=O)OC(C)C)n2)cc1 [Example 43] , the value recorded as its IC50 is 2

Given item CCC/C=C/COC(=O)c1csc(-c2ccc(OCC)cc2)n1 [Example 155] , the value recorded as its IC50 is 15

====

- tested.on: murine ATGL (Mus musculus, UniProt Q8BJ56)
- Construct: made in house; host or cells: Expi cells (lysate)
- Sequence (Q8BJ56 whole entry): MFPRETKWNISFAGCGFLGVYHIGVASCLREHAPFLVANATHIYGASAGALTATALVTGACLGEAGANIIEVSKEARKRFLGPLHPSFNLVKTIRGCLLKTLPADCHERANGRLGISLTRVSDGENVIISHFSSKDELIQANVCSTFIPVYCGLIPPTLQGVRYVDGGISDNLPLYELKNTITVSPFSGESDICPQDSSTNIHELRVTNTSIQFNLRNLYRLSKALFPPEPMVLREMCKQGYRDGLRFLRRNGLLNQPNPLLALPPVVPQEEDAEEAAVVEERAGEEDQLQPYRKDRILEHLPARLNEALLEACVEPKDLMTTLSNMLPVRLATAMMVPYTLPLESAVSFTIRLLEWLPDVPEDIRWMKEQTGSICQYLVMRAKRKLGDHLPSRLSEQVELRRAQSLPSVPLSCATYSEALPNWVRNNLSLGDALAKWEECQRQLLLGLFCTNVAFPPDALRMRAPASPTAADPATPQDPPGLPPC
- method.summary: TG hydrolase activity, Expi lysates expressing mouse ATGL + CGI-58, radiolabelled triolein
- Assay type: biochemical
- assay.setup: 50 μM compound; Example 237; read-out: Inhibition of murine ATGL at 50 μM − mean [%]
The following molecules are listed with their measured inhibition at 50 µM values.
Respond with the bare value in %.

                                   molecule  units_label  measurement
0    CCCCCCc1ccc(-c2cccc(C(=O)OC(C)C)n2)cc1            %            0
1         CCOC(=O)c1nc(-c2ccc(OCC)cc2)sc1Cl            %         11.1
2        CCOC(=O)c1csc(-c2ccc(SC(C)C)cc2)n1            %            0
3         C=CCOC(=O)c1csc(-c2ccc(OCC)cc2)n1            %           30
4  CCC(C)c1ccc(-c2cc(OC)cc(C(=O)OC(C)C)n2)cc1 (stereo not shown)            %            0
5         CCOC(=O)c1nc(-c2ccc(OCC)cc2)sc1OC            %          2.2
6        CCOc1ccc(-c2nc(C(=O)OC3CC3)cs2)cc1            %         12.1
7       CCCCCCOc1ccc(-c2nc(C(=O)OCC)cs2)cc1            %            0
8     CCOc1ccc(-c2nc(C(=O)OC(C)(C)C)cs2)cc1            %          6.3

The value of inhibition at 50 µM recorded for CCOC(=O)c1ccc(-c2cccc(C(=O)OC(C)C)n2)cc1 when tested on murine ATGL (Mus musculus, UniProt Q8BJ56) reads 0

====

- tested.on: murine ATGL (Mus musculus)
- Construct: made in house; host or cells: Expi cells (lysate)
- method.summary: TG hydrolase activity, Expi lysates expressing mouse ATGL + CGI-58, radiolabelled triolein
- Type: biochemical
- assay.setup: 50 μM compound; Example 237; read-out: Inhibition of murine ATGL at 50 μM − mean [%]
outcome.measure: inhibition at 50 µM (%)
Respond with the bare value in %.

Given item CCOc1ccc(-c2nc(C(=O)OCc3ccco3)cs2)cc1 [Example 153] , the value recorded as its inhibition at 50 µM is 42.2

Given item CCCOC(=O)c1cccc(-c2ccc(OCC)cc2)n1 [Example 31] , the value recorded as its inhibition at 50 µM is 6

Given item CCOc1ccc(-c2nc(C(=O)OC3CCC3)cs2)cc1 [Example 129] , the value recorded as its inhibition at 50 µM is 5.1

Given item CCOC(=O)c1csc(-c2ccc(N(C)C)cc2)n1 [Example 103] , the value recorded as its inhibition at 50 µM is 33.9

====

The following compounds are listed with their measured IC50 values.
- tested.on: human ATGL (Homo sapiens, UniProt Q96AD5)
- Construct: made in house; host or cells: Expi cells (lysate, not purified)
- method.summary: TG hydrolase activity, Expi cell lysates expressing human ATGL + CGI-58, radiolabelled triolein
- Assay type: biochemical
- assay.setup: Example 237; read-out: Inhibition of human ATGL − IC50
Respond with the bare value in µM.

Given item C=CCOc1ccc(-c2nc(C(=O)OCC)cs2)cc1 , the value recorded as its IC50 is 6

Given item CCOc1ccc(-c2nc(C(=O)OC(CF)CF)cs2)cc1 , the value recorded as its IC50 is 3

Given item CCOCCOc1ccc(-c2cccc(C(=O)OC(C)C)n2)cc1 , the value recorded as its IC50 is 3

====

- method.summary: Stability in human serum
- Assay type: in vitro ADME
- assay.setup: 37° C., HPLC MS
The following compounds are listed with their measured Stability in human serum [% rest after 3 h incubation] values.
Lab note: write values as number then unit, every time.

Examples with their reported Stability in human serum [% rest after 3 h incubation] follow.
                                   compound  measurement
0  CCOc1ccc(-c2nc(C(=O)OCc3ccsc3)cs2)cc1 [Example 215]          80%
1  CC(C)OC(=O)c1cccc(-c2ccc(C(F)(F)F)cc2)n1 [Example 41]          75%
2  COCc1ccc(-c2cc(OC)cc(C(=O)OC(C)C)n2)cc1 [Example 61]          75%

Given item C=C(C)COC(=O)c1csc(-c2ccc(OCC)cc2)n1 [Example 120] , the value recorded as its Stability in human serum [% rest after 3 h incubation] is 5%

Given item CCOc1ccc(-c2cccc(C(=O)OCc3ccco3)n2)cc1 [Example 190] , the value recorded as its Stability in human serum [% rest after 3 h incubation] is 0%

Given item CCOc1ccc(-c2cccc(C(=O)OCc3cccs3)n2)cc1 [Example 189] , the value recorded as its Stability in human serum [% rest after 3 h incubation] is 25%

Given item CCCCOC(=O)c1csc(-c2ccc(OCC)cc2)n1 [Example 212] , the value recorded as its Stability in human serum [% rest after 3 h incubation] is 50%

Given item CCCCCCCOc1ccc(-c2cccc(C(=O)OC(C)C)n2)cc1 [Example 86] , the value recorded as its Stability in human serum [% rest after 3 h incubation] is 80%

Given item CCCc1ccc(-c2cccc(C(=O)OC(C)C)n2)cc1 [Example 43] , the value recorded as its Stability in human serum [% rest after 3 h incubation] is 80%

Given item CCOc1ccc(-c2nc(C(=O)OCc3ccc(Cl)s3)cs2)cc1 [Example 223] , the value recorded as its Stability in human serum [% rest after 3 h incubation] is 80%

Given item CCOc1ccc(-c2cc(OC)cc(C(=O)OC(C)C)n2)cc1 [Example 35] , the value recorded as its Stability in human serum [% rest after 3 h incubation] is 75%

Sourced from patent US20220289698A1
